# EXPERIMENTAL SYSTEM: acetylcholinesterase
# ASSAY PROTOCOL: Inhibition and inactivation kinetics of acetylcholinesterase, substrate protection
# CONDITION SET: 25° C., pH=8 phosphate buffer
ASSAY ENDPOINT: Ki

Ask: Please report the recorded Ki for `C[N+](C)(C)CCOC(=O)Oc1ccc(CCl)cc1` .
Reply: 32 µM

----------
# EXPERIMENTAL SYSTEM: acetylcholinesterase
# ASSAY PROTOCOL: Ellman assay for acetylcholinesterase inhibition (enzyme source not given)
# CONDITION SET: enzyme source not stated
ASSAY ENDPOINT: pIC50
Note on units: pIC50 is unitless, being -log10 of a concentration expressed in mol/L.

Ask: Please report the recorded pIC50 for `CC(C)(C)CCOC(=O)Oc1ccc(CCl)cc1` .
Reply: 5.10

This collection of values is drawn from patent US5082964A.
